B1: Calcium-binding protein 2, residues 155 to 219; numbered along this chain, Q9NPB3 (parent)
chain: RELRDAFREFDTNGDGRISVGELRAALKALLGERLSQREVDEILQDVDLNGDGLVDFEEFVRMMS

Variants of: B1
Assay: abundance fitness (aPCA) (normalised: wild type 0, dead -1); higher = more abundant; growth selection in yeast, the domain comes from the species named
Conditions: Homo sapiens
Classification field: enter 1.0 for abundance fitness values not below 0.05, 0.0 for values below it.

See these solved cases before continuing.
Test whether the variant `R38E` records abundance fitness of 0.05 or higher.
0.0

Quick check: does `R38Q` have abundance fitness greater than or equal to 0.05?
0.0

For this variant, is measured abundance fitness 0.05 or higher? `A6S`
0.0

Can `D48G` be said to have abundance fitness at or above 0.05?
0.0

Hello, I need to know if `D56W` has measured abundance fitness not below 0.05. Thanks!
0.0

Next:
Could you tell me if the measured abundance fitness of `L35V` reaches 0.05 or more?
0.0

State whether the measured abundance fitness reaches 0.05, counting equality as reaching it, for `G53M`
0.0

Determine whether measured abundance fitness meets or exceeds 0.05 for `S36K`
0.0

Data credit: the Human Domainome abundance scans (Beltran et al. 2025)
